tested on: male ICR mice; assay: Functional observational battery; type: in vivo, mouse; conditions: Muscle tone/Equilibrium domain; i.v.; categorical; ---- no significant effect
Measurement Label: FOB Posture: doses with significant differences vs vehicle

INSERT INTO results (smiles, recorded_value) VALUES
  ('CCCCCn1cc(C(=O)c2ccc(CC)c3ccccc23)c2ccccc21', '(0.1-3) mg/kg'),
  ('CCCCCn1cc(C(=O)c2cccc3ccccc23)c2ccccc21', '(0.1-3) mg/kg');

----------
system: male ICR mice; experiment: Functional observational battery; type: in vivo, mouse; conditions: CNS Activity domain; i.v.; ↓ decrease vs vehicle; N = 6/dose
Measurement Label: FOB Home cage activity: doses with significant differences vs vehicle

INSERT INTO results (compound, target_under_test, recorded_value) VALUES
  ('CCCCCn1cc(C(=O)c2ccc(CC)c3ccccc23)c2ccccc21 [JWH-210]', 'male ICR mice', '↓ (0.1-3) mg/kg'),
  ('CCCCCn1cc(C(=O)c2cccc3ccccc23)c2ccccc21 [JWH-018, 1-pentyl-3-(1-naphthoyl)indole]', 'male ICR mice', '↓ (0.1-3) mg/kg');

----------
biological target: hERG (Homo sapiens); assay: hERG channel assay; assay type: cell-based; details: inhibition of hERG channels; mean of 3 replicates
Sequence (Q12809 whole entry): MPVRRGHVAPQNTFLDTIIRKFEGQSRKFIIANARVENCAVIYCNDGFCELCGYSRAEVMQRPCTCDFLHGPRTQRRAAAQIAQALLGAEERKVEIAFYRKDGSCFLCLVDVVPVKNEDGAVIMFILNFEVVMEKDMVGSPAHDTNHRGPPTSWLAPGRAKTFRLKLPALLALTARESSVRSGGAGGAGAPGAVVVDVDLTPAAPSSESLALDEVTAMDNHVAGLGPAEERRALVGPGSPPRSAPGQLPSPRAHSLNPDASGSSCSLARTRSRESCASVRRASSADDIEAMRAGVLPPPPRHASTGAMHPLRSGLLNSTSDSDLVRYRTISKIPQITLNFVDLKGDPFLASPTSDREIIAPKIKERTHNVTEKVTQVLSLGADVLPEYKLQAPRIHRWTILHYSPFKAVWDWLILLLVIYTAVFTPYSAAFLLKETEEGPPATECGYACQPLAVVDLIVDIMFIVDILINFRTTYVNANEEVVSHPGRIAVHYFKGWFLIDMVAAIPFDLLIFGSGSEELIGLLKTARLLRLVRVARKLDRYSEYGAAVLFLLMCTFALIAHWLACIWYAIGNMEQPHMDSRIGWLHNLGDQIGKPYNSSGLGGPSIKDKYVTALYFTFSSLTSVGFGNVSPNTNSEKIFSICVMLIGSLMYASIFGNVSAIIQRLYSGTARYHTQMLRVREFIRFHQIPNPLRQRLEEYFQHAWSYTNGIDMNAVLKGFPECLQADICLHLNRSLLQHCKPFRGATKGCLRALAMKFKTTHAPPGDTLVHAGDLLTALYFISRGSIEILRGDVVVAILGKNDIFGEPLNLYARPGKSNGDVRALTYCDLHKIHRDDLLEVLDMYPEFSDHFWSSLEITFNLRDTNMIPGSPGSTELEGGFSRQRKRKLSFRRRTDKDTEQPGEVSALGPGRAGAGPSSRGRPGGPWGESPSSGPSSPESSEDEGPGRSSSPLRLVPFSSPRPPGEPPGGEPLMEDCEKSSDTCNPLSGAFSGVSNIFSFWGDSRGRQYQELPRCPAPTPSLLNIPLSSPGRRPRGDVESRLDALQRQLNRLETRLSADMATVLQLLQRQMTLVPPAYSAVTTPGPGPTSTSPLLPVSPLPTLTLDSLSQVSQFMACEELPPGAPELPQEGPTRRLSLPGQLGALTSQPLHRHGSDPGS
Measurement Label: hERG Channels Emax

INSERT INTO measurements (smiles, measurement_label, recorded_value) VALUES
  ('CCCCCn1cc(C(=O)c2ccc(CC)c3ccccc23)c2ccccc21', 'hERG Channels Emax', 'lacked efficacy'),
  ('CCCCCn1cc(C(=O)c2ccc(OC)c3ccccc23)c2ccccc21', 'hERG Channels Emax', 'lacked efficacy');
